Each record here notes measured solubility thermodynamic.
assay: Equilibrium solubility of the compound by classical saturation shake flask method; type: physicochemical
Measured metric: solubility thermodynamic

{"Mol": "CC1(C)O[C@H]2CC(=O)OC[C@]23[C@H]2CC[C@@]4(C)[C@H](c5ccoc5)OC(=O)[C@H]5O[C@]54[C@]2(C)C(=O)C[C@@H]13", "Measured metric": "solubility thermodynamic", "Result": "< 5 µg/mL"}
{"Mol": "CC1(C)O[C@H]2CC(=O)OC[C@@]23[C@H]1CC(=O)[C@@]1(C)C2=CC(=O)O[C@H](c4ccoc4)[C@]2(C)CC[C@@H]13", "Measured metric": "solubility thermodynamic", "Result": "< 5 µg/mL"}

====

test: Partition coefficient, log D of the compound at pH 7.4; type: physicochemical; details: octanol/water
Okay, here is how we bin by logD: Low (below 0.4), Mid (0.4 to below 0.6), High (0.6 or more)

{"Mol": "CC1(C)O[C@H]2CC(=O)OC[C@]23[C@H]2CC[C@@]4(C)[C@H](c5ccoc5)OC(=O)[C@H]5O[C@]54[C@]2(C)/C(=N\\OCCN2CCCCC2)C[C@@H]13.Cl", "Group label": "Mid"}
{"Mol": "CC1(C)O[C@H]2CC(=O)OC[C@]23[C@H]2CC[C@]4(C)C(=CC(=O)O[C@H]4c4ccoc4)[C@]2(C)/C(=N\\OCCN2CCOCC2)C[C@@H]13.Cl", "Group label": "High"}
{"Mol": "CC1(C)O[C@H]2CC(=O)OC[C@]23[C@H]2CC[C@]4(C)C(=CC(=O)O[C@H]4c4ccoc4)[C@]2(C)/C(=N\\OCCN2CCCCC2)C[C@@H]13.Cl", "Group label": "High"}
{"Mol": "CC1(C)O[C@H]2CC(=O)OC[C@]23[C@H]2CC[C@@]4(C)[C@H](c5ccoc5)OC(=O)[C@H]5O[C@]54[C@]2(C)/C(=N\\OCCN2CCOCC2)C[C@@H]13.Cl", "Group label": "High"}
{"Mol": "CN(C)CCCO/N=C1/C[C@H]2C(C)(C)O[C@H]3CC(=O)OC[C@]32[C@H]2CC[C@@]3(C)[C@H](c4ccoc4)OC(=O)[C@H]4O[C@]43[C@]12C.Cl", "Group label": "Low"}
{"Mol": "CN(C)CCCO/N=C1/C[C@H]2C(C)(C)O[C@H]3CC(=O)OC[C@]32[C@H]2CC[C@]3(C)C(=CC(=O)O[C@H]3c3ccoc3)[C@]12C.Cl", "Group label": "Low"}
{"Mol": "CCN(CC)CCO/N=C1/C[C@H]2C(C)(C)O[C@H]3CC(=O)OC[C@]32[C@H]2CC[C@@]3(C)[C@H](c4ccoc4)OC(=O)[C@H]4O[C@]43[C@]12C.Cl", "Group label": "Low"}
{"Mol": "CCN(CC)CCO/N=C1/C[C@H]2C(C)(C)O[C@H]3CC(=O)OC[C@]32[C@H]2CC[C@]3(C)C(=CC(=O)O[C@H]3c3ccoc3)[C@]12C.Cl", "Group label": "Mid"}
{"Mol": "CN(C)CCO/N=C1/C[C@H]2C(C)(C)O[C@H]3CC(=O)OC[C@]32[C@H]2CC[C@]3(C)C(=CC(=O)O[C@H]3c3ccoc3)[C@]12C.Cl", "Group label": "Low"}

====

tested on: Mus musculus; assay: Antiinflammatory activity in mouse assessed as inhibition of xylene-induced ear swelling at 100 mg/kg, ig administered 90 mins prior to xylene challenge measured after 30 mins; type: functional; conditions: po, route intragastric
Everything with inhibition in vivo at 100 mg/kg lower than 30% is no; everything else, including exactly 30%, is yes.

{"Mol": "CN(C)CCO/N=C1/C[C@H]2C(C)(C)O[C@H]3CC(=O)OC[C@]32[C@H]2CC[C@@]3(C)[C@H](c4ccoc4)OC(=O)[C@H]4O[C@]43[C@]12C.Cl", "Group label": "yes"}
{"Mol": "CCN(CC)CCO/N=C1/C[C@H]2C(C)(C)O[C@H]3CC(=O)OC[C@]32[C@H]2CC[C@@]3(C)[C@H](c4ccoc4)OC(=O)[C@H]4O[C@]43[C@]12C.Cl", "Group label": "yes"}
{"Mol": "CN(C)CCCO/N=C1/C[C@H]2C(C)(C)O[C@H]3CC(=O)OC[C@]32[C@H]2CC[C@]3(C)C(=CC(=O)O[C@H]3c3ccoc3)[C@]12C.Cl", "Group label": "no"}
{"Mol": "CN(C)CCO/N=C1/C[C@H]2C(C)(C)O[C@H]3CC(=O)OC[C@]32[C@H]2CC[C@]3(C)C(=CC(=O)O[C@H]3c3ccoc3)[C@]12C.Cl", "Group label": "no"}
{"Mol": "CCN(CC)CCO/N=C1/C[C@H]2C(C)(C)O[C@H]3CC(=O)OC[C@]32[C@H]2CC[C@]3(C)C(=CC(=O)O[C@H]3c3ccoc3)[C@]12C.Cl", "Group label": "no"}

====

Each record here notes measured inhibition in vivo at 100 mg/kg.
tested on: Mus musculus; assay: Antiinflammatory activity in mouse assessed as inhibition of xylene-induced ear swelling at 100 mg/kg, ig administered 90 mins prior to xylene challenge measured after 30 mins; type: functional; settings: po, route intragastric

{"Mol": "CC1(C)O[C@H]2CC(=O)OC[C@]23[C@H]2CC[C@]4(C)C(=CC(=O)O[C@H]4c4ccoc4)[C@]2(C)/C(=N\\OCCN2CCCCC2)C[C@@H]13.Cl", "inhibition in vivo at 100 mg/kg (%)": 25.4}
{"Mol": "CC1(C)O[C@H]2CC(=O)OC[C@]23[C@H]2CC[C@]4(C)C(=CC(=O)O[C@H]4c4ccoc4)[C@]2(C)/C(=N\\OCCN2CCOCC2)C[C@@H]13.Cl", "inhibition in vivo at 100 mg/kg (%)": 27.6}
{"Mol": "CC1(C)O[C@H]2CC(=O)OC[C@]23[C@H]2CC[C@@]4(C)[C@H](c5ccoc5)OC(=O)[C@H]5O[C@]54[C@]2(C)/C(=N\\OCCN2CCCCC2)C[C@@H]13.Cl", "inhibition in vivo at 100 mg/kg (%)": 54.8}
